target: GSTO1; assay: pooled miR-30 sensor sort-seq; sequence = guide strand; details: shRNA; note: reference of the scale not given here
Assign sensor-assay potency score (higher = more potent) to each entry below.
Numbers only.

Recorded sensor-assay potency score (higher = more potent), per entry:
>  <residue sequence>
TTATTAGTCAGAACCTCCTCTA

>  <quantitative result>
-0.622

$$$$
>  <residue sequence>
ATATTGATGACTTCATGCCTGA

>  <quantitative result>
-0.0136

$$$$
>  <residue sequence>
TATTAGTCAGAACCTCCTCTAG

>  <quantitative result>
-0.847

$$$$
>  <residue sequence>
TTTTCTTAAAGAACCACTCAGG

>  <quantitative result>
-0.256

$$$$
>  <residue sequence>
TGAGACTGTGGGATCTTCCTTC

>  <quantitative result>
0.458

$$$$
>  <residue sequence>
TAGAGATAGAATTGCCACCAAA

>  <quantitative result>
-1.16

$$$$
>  <residue sequence>
TCTAAGATCATCTTCTGGCAAG

>  <quantitative result>
-0.832

$$$$
>  <residue sequence>
TTTCTCACTAGTAAGCAGGGCT

>  <quantitative result>
0.254

$$$$

Next up:
Find the recorded sensor-assay potency score (higher = more potent) belonging to TAACTTCATTGCTTCCAGCCGT and report it.
-0.351

====

target: CETN1; experiment: pooled miR-30 sensor sort-seq; sequence = guide strand; details: shRNA
Assign sensor-assay potency score (higher = more potent) to each entry below.
Answers are plain numbers.

Recorded sensor-assay potency score (higher = more potent), per entry:
>  <residue sequence>
TTCTCGGACATCTTCTGCGTCA

>  <quantitative result>
-0.598

$$$$
>  <residue sequence>
ATTGAAGCTGATCTTCCCCGTG

>  <quantitative result>
-0.49

$$$$
>  <residue sequence>
TTTCTCTTTTGGCCGGTGGAGG

>  <quantitative result>
-1.52

$$$$
>  <residue sequence>
TATTGAACTAGAGATATGGAAA

>  <quantitative result>
-1.01

$$$$

Please report sensor-assay potency score (higher = more potent) for every entry that follows.
1. TCTTCTTTGGTGTCCTTCTCGG
2. ATCAGCTTCGTCGATCATCTCC
3. TCATCGTCATCAAAGAGCCTGA
4. AGCTTCGTCGATCATCTCCTGC
5. TTCAGGATTTCTTCTTTGGTGT
6. ATCCCGATCAGCTTCGTCGATC
7. TCTTGCTTCTGATCCTCAGTGA
8. TTCGTCGATCATCTCCTGCAGC

[-0.36, -0.374, -0.321, -1.15, -0.547, -1.43, 0.681, -0.572]

====

target: C1orf101; test: pooled miR-30 sensor sort-seq; sequence = guide strand; settings: shRNA
Assign sensor-assay potency score (higher = more potent) to each entry below.
One number for each entry.

Recorded sensor-assay potency score (higher = more potent), per entry:
>  <residue sequence>
TTGTATTGTGCCATCATCCAAA

>  <quantitative result>
-0.463

$$$$
>  <residue sequence>
TAACTCTATAGTACCACAGAAA

>  <quantitative result>
-1.26

$$$$

Please report sensor-assay potency score (higher = more potent) for every entry that follows.
1. TTGGTTTCCTCTAATCTCCTTT
2. TTGAATATTCACTAGGTCGAAA
3. TAAACAACCACTCTGTGCCATA

0.267
-0.467
-0.921

These measurements were taken from the OligoGym collection.
